System: DU-145 prostate
Assay: NCI-60 one-dose screen, 48 h (100 = growth as untreated, 0 = no growth, -100 = all killed)
Conditions: 10 µM
This is part of a sample that, as a whole, favours compounds with a hit. Of some 83,000 tested, about 20% had one in any assay.
quantity-name: growth (%)
Express it in %; write the number only.

Reference set, count: 2
# compound, growth [%]
measured = [
    ("O=[N+]([O-])/C=C/c1ccc(Cl)cc1[N+](=O)[O-]", 75.2),
    ("O=[N+]([O-])/C=C\\c1ccc2c(c1)OCO2", 88.7),
]

Please tell me: growth of `C/C1=C\[C@H](C)C[C@H](C)OC(=O)C[C@H](c2ccc(O)cc2)NC(=O)[C@@H](Cc2c(Br)[nH]c3ccccc23)N(C)C(=O)[C@H](C)NC(=O)[C@@H](C)C1` , system DU-145 prostate?
-15.6

Return growth measured with DU-145 prostate given this compound: `[O-][n+]1ccccc1S`
32.3

Give growth (DU-145 prostate) of the following compound: COC1CC2C=C(C)/C=C/C=C/C(=O)NC(c3ccccc3)C/C=C/CCC(O)CC(=O)C2=C1O (configuration not stated)
-85.6

Give growth (DU-145 prostate) of the following compound: `O=C(CBr)Nc1ccccc1`
102

For the record `CC/C(=C/c1ccc(OC)cc1)[N+](=O)[O-]` , what value of growth is listed for DU-145 prostate?
31.5

What value of growth on DU-145 prostate does `CC(=O)Nc1c2sscc-2n(C)c1=O` have?
-100

Lab note: need growth for `COc1ccc(/C=C(\C)[N+](=O)[O-])cc1OC` on DU-145 prostate, anyone have it?
18.6

Give recorded growth with DU-145 prostate for the following compound: `O=[N+]([O-])c1ccc(N2CCOCC2)c2c1no[n+]2[O-]`
6.63

Form field: growth recorded for CCOP(=O)(OCC)C(O)c1ccccc1Cl (configuration not stated) with DU-145 prostate (enter value)
97.7

Checklist item: growth tested on DU-145 prostate, entry CC(Cc1ccc2c(c1)OCO2)NN (configuration not stated) , value?
113

The values you see were collected from PubChem BioAssay (NCI).
